measuredOn: HCV NS5B polymerase (NS5BΔCT21, from HCV-Con 1 isolate, genotype 1b) (Hepatitis C virus genotype 1b, UniProt Q9WMX2)
Construct: A soluble C-terminal 21-amino acid truncated NS5B enzyme form; polyhistidine (C); made in house; host or cells: Escherichia coli
protocolDescription: HCV NS5B Polymerase Inhibition Assay
Type: biochemical
Description: A chemically synthesized 75-mer version, designated DCoH75, whose sequence matches the 3′-end of D-RNA, and DCoH75ddC, where the 3′-terminal cytidine of DCoH75 is replaced by dideoxycytidine, were used for assaying the NS5B enzyme activity as described in Ferrari et al., 12th International Symposium on HCV and Related Viruses, P-306 (2005). […] Polynucleotide synthesis was monitored by the incorporation of radiolabeled CTP. […]
reportedMetric: IC50

Kindly indicate its recorded IC50. Item: CCOC(=O)c1c(-c2ccccc2F)c2c3c(C)c(C)[nH]c3ccc2n1Cc1ccccc1 [Compound 51]
> 100 nM

Kindly indicate its recorded IC50. Item: O=C(O)c1c(-c2ccc[nH]c2=O)c2c3occc3c(F)cc2n1Cc1cc2ccccc2nc1Cl [Compound 126]
< 25 nM

Kindly indicate its recorded IC50. Item: CC(C)(C)C(=O)OCOC(=O)c1c(-c2cccn(COC(=O)C(C)(C)C)c2=O)c2c3occc3c(F)cc2n1Cc1cc(=O)n(COC(=O)C(C)(C)C)cc1F [Compound 228]
> 100 nM

Kindly indicate its recorded IC50. Item: Nc1n[nH]c2cc(F)c(Cn3c(C(=O)O)c(-c4ccc[nH]c4=O)c4c5occc5c(F)cc43)cc12 [Compound 80]
< 25 nM

Kindly indicate its recorded IC50. Item: CS(=O)(=O)NC(=O)c1c(-c2ccc[nH]c2=O)c2c3c(ccc2n1Cc1cc(F)ccc1F)CCO3 [Compound 59]
< 25 nM

Kindly indicate its recorded IC50. Item: Cc1ccccc1Cn1c(C(=O)NS(C)(=O)=O)c(-c2ccc[nH]c2=O)c2c3ncsc3ccc21 [Compound 51]
< 25 nM

Kindly indicate its recorded IC50. Item: O=C(NS(=O)(=O)C1CC1)c1c(-c2ccc[nH]c2=O)c2c3occc3c(F)cc2n1Cc1cc2c(=O)[nH]cnc2cc1F [Compound 212]
< 25 nM

Kindly indicate its recorded IC50. Item: CS(=O)(=O)NC(=O)c1c(-c2ccc[nH]c2=O)c2c3c(ccc2n1Cc1ccccc1F)OC(F)(F)O3 [Compound 56]
< 25 nM

Kindly indicate its recorded IC50. Item: O=C(O)c1c(-c2ccc[nH]c2=O)c2c3occc3c(F)cc2n1Cc1cc(=O)[nH]c2ccccc12 [Compound 114]
< 25 nM

---

Test system: HCV replicon cells (replicon RNA level)
protocolDescription: Cell-Based HCV Replicon Assay
assaySetup: Hepatitis C virus, 72 h
reportedMetric: EC50

Kindly indicate its recorded EC50. Item: CC1(C)COc2c1ccc1c2c(-c2ccc[nH]c2=O)c(C(=O)O)n1Cc1cc2ccccc2nc1Cl [Compound 231]
< 500 nM

Kindly indicate its recorded EC50. Item: O=C(O)c1c(-c2ccc[nH]c2=O)c2c3occc3c(F)cc2n1Cc1cc(=O)[nH]cc1F [Compound 87]
< 500 nM

---

Assign IC50 to each entry below.
measuredOn: HCV NS5B polymerase (NS5BΔCT21, from HCV-Con 1 isolate, genotype 1b) (Hepatitis C virus genotype 1b, UniProt Q9WMX2)
Construct: A soluble C-terminal 21-amino acid truncated NS5B enzyme form; polyhistidine (C); made in house; host or cells: Escherichia coli
protocolDescription: HCV NS5B Polymerase Inhibition Assay
Assay type: biochemical
assaySetup: NS5B polymerase inhibition, [33P]-CTP incorporation, 22° C. for 2 hours; read-out: IC50

Kindly indicate its recorded IC50. Item: Nc1cc(Cn2c(C(=O)O)c(-c3ccc[nH]c3=O)c3c4occc4c(F)cc32)ccn1 [Compound 77]
< 25 nM

Kindly indicate its recorded IC50. Item: O=C(NS(=O)(=O)C1CC1)c1c(-c2ccc[nH]c2=O)c2c3occc3c(F)cc2n1Cc1ccc2[nH]c(C(F)(F)F)nc2c1 [Compound 222]
< 25 nM

Kindly indicate its recorded IC50. Item: Cc1cc2ccc3c(c(-c4ccc[nH]c4=O)c(C(=O)NS(C)(=O)=O)n3Cc3ccccc3F)c2o1 [Compound 132]
25 to 100 nM

Kindly indicate its recorded IC50. Item: O=C(O)c1c(-c2ccc[nH]c2=O)c2c3occc3c(F)cc2n1Cc1cc(=O)[nH]cc1Br [Compound 135]
< 25 nM

Kindly indicate its recorded IC50. Item: CCCS(=O)(=O)NC(=O)c1c(-c2ccc[nH]c2=O)c2c3occc3c(F)cc2n1Cc1cc2ccccc2nc1Cl [Compound 213]
< 25 nM

Kindly indicate its recorded IC50. Item: CC(C)S(=O)(=O)NC(=O)c1c(-c2ccc[nH]c2=O)c2c3c(c(F)cc2n1Cc1csc(C(N)=O)c1)CCO3 [Compound 188]
< 25 nM

Kindly indicate its recorded IC50. Item: O=C(O)c1c(-c2cccc(O)c2F)c2c3occc3c(F)cc2n1Cc1ccccc1F [Compound 88]
25 to 100 nM

Kindly indicate its recorded IC50. Item: NC(=O)c1ccc(F)c(Cn2c(C(=O)O)c(-c3ccc[nH]c3=O)c3c4occc4c(F)cc32)c1 [Compound 107]
< 25 nM

Kindly indicate its recorded IC50. Item: O=C(NS(=O)(=O)C1CC1)c1c(-c2ccc[nH]c2=O)c2c3occc3c(F)cc2n1Cc1cc(C(O)CO)ccc1F (centres unmarked) [Compound 207]
< 25 nM

Kindly indicate its recorded IC50. Item: CC(C)S(=O)(=O)NC(=O)c1c(-c2ccc[nH]c2=O)c2c3occc3ccc2n1Cc1cc(F)ccc1F [Compound 63]
< 25 nM

Kindly indicate its recorded IC50. Item: O=C(O)c1c(-c2ccc[nH]c2=O)c2c3occ(Cl)c3ccc2n1Cc1ccccc1F [Compound 45]
< 25 nM

Kindly indicate its recorded IC50. Item: CCc1coc2c1ccc1c2c(-c2ccc[nH]c2=O)c(C(=O)NS(C)(=O)=O)n1Cc1cc(F)ccc1F [Compound 69]
> 100 nM

Kindly indicate its recorded IC50. Item: Cc1cc2ccc3c(c(-c4ccc[nH]c4=O)c(C(=O)O)n3Cc3cc(F)ccc3F)c2o1 [Compound 85]
< 25 nM

Kindly indicate its recorded IC50. Item: O=C(O)c1c(-c2ccc[nH]c2=O)c2c3occc3c(F)cc2n1Cc1cc2nc[nH]c2cc1Cl [Compound 120]
< 25 nM

Kindly indicate its recorded IC50. Item: CS(=O)(=O)NC(=O)c1c(-c2ccc[nH]c2=O)c2c3occc3cc(F)c2n1Cc1cc(F)ccc1F [Compound 151]
< 25 nM

Kindly indicate its recorded IC50. Item: O=C(NS(=O)(=O)C1CC1)c1c(-c2ccc[nH]c2=O)c2c3occc3c(F)cc2n1Cc1cc2ccccc2nc1Cl [Compound 211]
< 25 nM

Kindly indicate its recorded IC50. Item: O=C(O)c1c(-c2ccc[nH]c2=O)c2c3occc3c(F)cc2n1Cc1cc(=O)[nH]cc1F [Compound 87]
< 25 nM

Kindly indicate its recorded IC50. Item: CC(C)S(=O)(=O)NC(=O)c1c(-c2ccc[nH]c2=O)c2c3occc3c(F)cc2n1Cc1cc(C(N)=O)ccc1F [Compound 199]
< 25 nM

Kindly indicate its recorded IC50. Item: Cc1cccc(Cn2c(C(=O)NS(=O)(=O)C(C)C)c(-c3ccc[nH]c3=O)c3c4occc4ccc32)c1F [Compound 158]
< 25 nM

Kindly indicate its recorded IC50. Item: CS(=O)(=O)NC(=O)c1c(-c2ccc[nH]c2=O)c2c3occc3c(F)cc2n1Cc1ccnc(N)c1 [Compound 133]
< 25 nM

Kindly indicate its recorded IC50. Item: CCOC(=O)c1c(-c2ccc[nH]c2=O)c2c3occc3c(F)cc2n1Cc1cc(C(N)=O)ccc1F [Compound 130]
25 to 100 nM

Kindly indicate its recorded IC50. Item: CCc1coc2c1ccc1c2c(-c2ccc[nH]c2=O)c(C(=O)O)n1Cc1cc(F)ccc1F [Compound 24]
> 100 nM

Kindly indicate its recorded IC50. Item: Nc1ccccc1S(=O)(=O)NC(=O)c1c(-c2ccc[nH]c2=O)c2c3occc3c(F)cc2n1Cc1cc2ccccc2nc1Cl [Compound 223]
< 25 nM

Kindly indicate its recorded IC50. Item: Cc1ccccc1Cn1c(C(=O)NS(C)(=O)=O)c(-c2ccc[nH]c2=O)c2c3occc3ccc21 [Compound 61]
< 25 nM

Kindly indicate its recorded IC50. Item: Nc1n[nH]c2ccc(Cn3c(C(=O)O)c(-c4ccc[nH]c4=O)c4c5occc5c(F)cc43)cc12 [Compound 100]
< 25 nM

Kindly indicate its recorded IC50. Item: CS(=O)(=O)NC(=O)c1c(-c2ccc[nH]c2=O)c2c3c(ccc2n1Cc1cc(F)ccc1F)CCC3 [Compound 12]
< 25 nM

Kindly indicate its recorded IC50. Item: NC(=O)c1cnc(F)c(Cn2c(C(=O)O)c(-c3ccc[nH]c3=O)c3c4c(c(F)cc32)CCO4)c1 [Compound 113]
< 25 nM

Kindly indicate its recorded IC50. Item: Cc1cc2ccc3c(c(-c4ccc[nH]c4=O)c(C(=O)O)n3Cc3ccccc3F)c2o1 [Compound 76]
25 to 100 nM

Kindly indicate its recorded IC50. Item: CS(=O)(=O)NC(=O)c1c(-c2ccc[nH]c2=O)c2c3occc3ccc2n1Cc1ccc(F)cc1F [Compound 4]
25 to 100 nM
